System: SNB-75 CNS
Assay: NCI tumour cell line growth inhibition, 48 h
Reported GI50 values for the following compounds.
Endpoint: GI50

| Compound | Recorded Value |
| --- | --- |
| CC(C)N(CCCNC(=O)Nc1ccc(C(C)(C)C)cc1)C[C@H]1O[C@@H](n2ccc3c(N)ncnc32)[C@H](O)[C@@H]1O | 26.2 µM |
| Cc1oc2c(C(=O)N/N=C\c3ccc(O)cc3O)c[nH]c2c1C | 3.57 µM |
| COc1cc(/C=C2\C(=O)Nc3ccccc32)cc(OC)c1O | 1.17 µM |

====

System: SF-295 CNS
Experiment: NCI tumour cell line growth inhibition, 48 h
Quick reference: TGI of the listed items.
Endpoint: TGI (µM)

| Compound | Reported Relation | Recorded Value |
| --- | --- | --- |
| CCCCCCCCCCCC[C@@H](O)[C@H]1CC[C@H]([C@H]2CC[C@H]([C@H](O)CC[C@H](O)CCCCCCCC3=C[C@H](C)OC3=O)O2)O1 | = | 3.01 |
| O=C1OCC2=C1C(c1ccc3c(c1)OCO3)c1cc3c(cc1O2)OCO3 (centres undefined) | > | 72.2 |
| CC12CCC([C@H](Nc3cc(C(F)(F)F)cc(C(F)(F)F)c3)C1=O)C2(C)C (some centres undefined) | > | 100 |
| Clc1ccccc1/C=C/c1ccnc2ccccc12 | = | 29.2 |
| Cc1cc(Cl)ccc1OCc1nn2c(CCCCc3nnc4sc(COc5ccc(Cl)cc5C)nn34)nnc2s1 | = | 76.2 |
| CCCCCCN1CCc2c(C)c(C#N)c3nc4ccccc4n3c21 | > | 100 |
| CC(=O)OCC(OC(C)=O)C(OC(C)=O)C(OC(C)=O)C(=O)CNn1c(-c2ccc(C)cc2)nc2ccccc2c1=O (centres undefined) | > | 100 |
| CC1CC2(OC2C)C(=O)OC2CCN(C)C/C=C(/COC(=O)C1(C)O)C2=O (centres undefined) | > | 100 |
| COc1cc(C2Oc3cc(-c4oc5cc(O)cc(O)c5c(=O)c4O)ccc3OC2CO)ccc1O (centres undefined) | = | 64.8 |
| CCC1OC(=O)CC(O)C(C)C(OC2OC(C)C(O)C(N(C)C)C2O)C(CC=O)CC(C)C(=O)/C=C/C2(C)OC2C1C (centres undefined) | > | 100 |
| Fc1cccc(C2SCC3=Nc4ccccc4CN32)c1 (centres undefined) | > | 100 |
| COc1ccc(/C=N/N/C(O)=c2/sc(=C(C#N)C#N)n(-c3ccccc3)c2=N)cc1 | > | 70.5 |
| COc1ccc2c(c1)[n+](=O)c(C(=O)CC(=O)C(=O)Nc1cccc(Cl)c1C)c(C)n2[O-] | > | 100 |
| Nc1c(C(=O)Nc2cccc(C(F)(F)F)c2)sc2nc3c(cc12)C(O)CCC3 (centres undefined) | = | 38.4 |
| CC(=O)N/C=C/c1cc(O)ccc1O | = | 48.1 |
| C[C@@H](O)CCC(=O)c1ccoc1 | > | 100 |
| O=C1C(c2ccc([N+](=O)[O-])cc2)=C(Cl)C(=O)c2c(O)cccc21 | = | 98.9 |
| CN(C)CC/C(=N\Nc1ccc(Cl)cc1)c1ccccc1 | = | 1.25 |
| COc1cc(-c2nn(-c3cccc(NC(=O)Nc4cccc(C(F)(F)F)c4)c3)cc2-c2ccncc2)ccc1Cl | = | 0.926 |
